Target Under Test: B2 bradykinin receptor (Cavia porcellus, UniProt O70526)
Sequence (O70526 whole entry): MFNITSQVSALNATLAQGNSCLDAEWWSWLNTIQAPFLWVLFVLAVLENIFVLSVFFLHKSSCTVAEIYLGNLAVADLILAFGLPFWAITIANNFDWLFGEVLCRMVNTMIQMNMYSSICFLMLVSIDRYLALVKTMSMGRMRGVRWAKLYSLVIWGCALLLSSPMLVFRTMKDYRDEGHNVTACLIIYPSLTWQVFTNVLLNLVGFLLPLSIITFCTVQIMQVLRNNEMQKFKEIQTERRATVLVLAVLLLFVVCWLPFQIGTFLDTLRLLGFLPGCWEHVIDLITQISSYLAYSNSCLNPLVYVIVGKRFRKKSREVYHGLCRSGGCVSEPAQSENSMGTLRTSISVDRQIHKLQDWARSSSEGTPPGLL
Test Details: Concentration required to inhibit specific binding of [ 3H]BK (0.06 nM) to Bradykinin receptor B2 in guinea pig ileum membrane preparations by 50%.
Type: cell membranes
Measured Property: IC50 (nM)

>>> data_value("CNC(=O)c1ccc(/C=C/C(=O)NCC(=O)N(C)c2ccc(Cl)c(COc3cccc4c3nc(C)n4C)c2Cl)cc1")
9.1
>>> data_value("Cc1cnc2cccc(OCc3c(Cl)ccc(N(C)C(=O)CNC(=O)/C=C/c4ccc(C(=O)N(C)C)cc4)c3Cl)c2n1")
1.9

[P] Cc1cnc2cccc(OCc3c(C)ccc(N(C)C(=O)CNC(=O)/C=C/c4ccc(N5CCCC5=O)cc4)c3C)c2n1
[Q] Cc1ccc2cccc(OCc3c(Cl)ccc(N(C)C(=O)CNC(=O)/C=C/c4ccc(C(=O)Nc5ccccc5)cc4)c3Cl)c2n1
Could you determine which record has the numerically smaller IC50? Candidates: P and Q // caller expects the label of the chosen entry
P
(P: 2.4 nM, Q: 6.3 nM)

Value source: ChEMBL document CHEMBL1131138
